Assay: in vivo
Conditions: both, cynomolgus monkey, iv, 1 mg/kg, Tmax
propertyMeasured: Tmax (h)
Expressed in h, but write only the number.

Sample O=C(NN1C(=O)C2C3C=CC(C4CC34)C2C1=O)c1ccc(C(F)(F)F)cc1 (stereo not shown) — what was its Tmax?
4

----------
Assay: in vivo
Settings: female, BALB/c, mouse, po, 30 mg/kg
propertyMeasured: half-life (h)
Expressed in h, but write only the number.

Sample O=C(NN1C(=O)C2C3C=CC(C4CC34)C2C1=O)c1ccc(C(F)(F)F)cc1 (stereo not shown) [ST-246] — what was its half-life?
2.4

----------
Test: in vivo
Conditions: both, New Zealand White, rabbit, po, 100 mg/kg
propertyMeasured: Cmax
Show the value, then the unit it is measured in.

Sample O=C(NN1C(=O)C2C3C=CC(C4CC34)C2C1=O)c1ccc(C(F)(F)F)cc1 (stereo not shown) [ST-246] — what was its Cmax?
2860 ng/mL

----------
Test: in vivo
Conditions: female, CD-1, mouse, iv, 30 mg/kg
propertyMeasured: half-life
Show the value, then the unit it is measured in.

Sample O=C(NN1C(=O)C2C3C=CC(C4CC34)C2C1=O)c1ccc(C(F)(F)F)cc1 (stereo not shown) — what was its half-life?
2.5 h

----------
Experiment: in vivo
Conditions: female, CD-1, mouse, iv, 3 mg/kg
propertyMeasured: half-life (min)
Expressed in min, but write only the number.

Sample O=C(NN1C(=O)C2C3C=CC(C4CC34)C2C1=O)c1ccc(C(F)(F)F)cc1 (stereo not shown) — what was its half-life?
270

----------
Assay: in vivo
Conditions: male, New Zealand White, rabbit, iv, 30 mg/kg, Cmax
propertyMeasured: Cmax (ng/mL)
Expressed in ng/mL, but write only the number.

Sample O=C(NN1C(=O)C2C3C=CC(C4CC34)C2C1=O)c1ccc(C(F)(F)F)cc1 (stereo not shown) — what was its Cmax?
40000

----------
Assay: in vivo
Details: female, CD-1, mouse, iv, 3 mg/kg, AUC0-24 hr
propertyMeasured: AUC(0-t) (ng·h/mL)
Expressed in ng·h/mL, but write only the number.

Sample O=C(NN1C(=O)C2C3C=CC(C4CC34)C2C1=O)c1ccc(C(F)(F)F)cc1 (stereo not shown) — what was its AUC(0-t)?
68000

----------
Test: in vivo
Conditions: male, mouse, po, 600 mg/kg, Cmax
propertyMeasured: Cmax

Sample O=C(NN1C(=O)C2C3C=CC(C4CC34)C2C1=O)c1ccc(C(F)(F)F)cc1 (stereo not shown) — what was its Cmax?
82.8 µg/mL

----------
Assay: in vivo
Conditions: both, cynomolgus monkey, iv, 1 mg/kg
propertyMeasured: AUC(0-t)
Show the value, then the unit it is measured in.

Sample O=C(NN1C(=O)C2C3C=CC(C4CC34)C2C1=O)c1ccc(C(F)(F)F)cc1 (stereo not shown) [ST-246] — what was its AUC(0-t)?
1880 ng·h/mL

----------
Assay: in vivo
Details: New Zealand White, rabbit, iv, 1 mg/kg, T1/2
propertyMeasured: half-life (min)
Expressed in min, but write only the number.

Sample O=C(NN1C(=O)C2C3C=CC(C4CC34)C2C1=O)c1ccc(C(F)(F)F)cc1 (stereo not shown) [ST-246] — what was its half-life?
54

----------
Assay: in vivo
Conditions: both, cynomolgus monkey, iv, 1 mg/kg, Cmax
propertyMeasured: Cmax (ng/mL)
Expressed in ng/mL, but write only the number.

Sample O=C(NN1C(=O)C2C3C=CC(C4CC34)C2C1=O)c1ccc(C(F)(F)F)cc1 (stereo not shown) — what was its Cmax?
384

The reported numbers originate from patent US9907859B2.
